Compiled from multiple publications: log10 of IC50 readings for Somatostatin receptor type 1 (Homo sapiens).
Quick note: numbers are log10 of IC50, with nM as the unit.

Observed log10 of IC50, Somatostatin receptor type 1 (Homo sapiens), "CC(=O)N[C@H]1CSSC[C@@H](C(=O)O)NC(=O)[C@H](Cc2ccccc2)NC(=O)[C@H]([C@@H](C)O)NC(=O)[C@H](CCCCN)NC(=O)[C@@H](Cc2c[nH]c3ccccc23)NC(=O)[C@H](Cc2ccccc2)NC(=O)[C@H](Cc2ccccc2)NC1=O" : 1.34

Observed log10 of IC50, Somatostatin receptor type 1 (Homo sapiens), "CC(C)NCc1ccc(C[C@@H]2NC(=O)[C@H](N(C)C(=O)c3ccc4ccccc4c3)NC(=O)[C@H](Cc3ccccc3)NC(=O)[C@H](Cc3ccccc3)NC(=O)[C@H](CCCCN)NC(=O)[C@@H](N)CSSC[C@@H](C(=O)O)NC(=O)[C@H](CO)NC(=O)[C@H]([C@@H](C)O)NC(=O)[C@H](Cc3ccc(O)c(I)c3)NC(=O)[C@H]([C@@H](C)O)NC2=O)cc1" : 0.83

Observed log10 of IC50, Somatostatin receptor type 1 (Homo sapiens), "CN[C@H]1CSSC[C@@H](C(=O)O)NC(=O)[C@H](CO)NC(=O)[C@H]([C@@H](C)O)NC(=O)[C@H](Cc2ccccc2)NC(=O)[C@H]([C@@H](C)O)NC(=O)[C@H](Cc2ccc(CNC(C)C)cc2)NC(=O)[C@@H](Cc2c[nH]c3ccccc23)NC(=O)[C@H](Cc2ccccc2)NC(=O)[C@H](Cc2ccccc2)NC(=O)[C@H](CCCCN)NC1=O" : 1.15

Observed log10 of IC50, Somatostatin receptor type 1 (Homo sapiens), "C[C@@H](O)[C@H](NC(=O)[C@@H]1CSSC[C@@H](NC(=O)[C@H](N)Cc2ccccc2)C(=O)N[C@@H](Cc2cccnc2)C(=O)N[C@H](Cc2c[nH]c3ccccc23)C(=O)N[C@@H](CCCCN)C(=O)N[C@@H]([C@@H](C)O)C(=O)N1)C(N)=O" : 3.00

Observed log10 of IC50, Somatostatin receptor type 1 (Homo sapiens), "CC(C)NCc1ccc(C[C@H]2C(=O)N[C@@H]([C@@H](C)O)C(=O)N[C@@H](Cc3ccc(O)c(I)c3)C(=O)N[C@H]3CCCCCCNC(=O)CC[C@H](NC(=O)[C@H](Cc4ccccc4)NC(=O)[C@H](CCCCN)NC(=O)[C@@H](N)CSSC[C@@H](C(=O)O)NC(=O)[C@H](CO)NC3=O)C(=O)N[C@H](Cc3c[nH]c4ccccc34)C(=O)N2C)cc1" : 1.66

Observed log10 of IC50, Somatostatin receptor type 1 (Homo sapiens), "CC(C)NCc1ccc(C[C@@H]2NC(=O)[C@@H](Cc3c[nH]c4ccccc34)NC(=O)[C@@H]3CCC(=O)NCCC(=O)NCCC[C@H](NC(=O)[C@H](Cc4ccccc4)NC(=O)[C@H]([C@@H](C)O)NC2=O)C(=O)N[C@@H](CO)C(=O)N[C@H](C(=O)O)CSSC[C@H](NC(=O)[C@@H](N)Cc2ccc(O)cc2)C(=O)N[C@@H](CCCCN)C(=O)N[C@@H](Cc2ccccc2)C(=O)N3)cc1" : 1.81

Observed log10 of IC50, Somatostatin receptor type 1 (Homo sapiens), "C[C@@H](O)[C@@H]1NC(=O)[C@H](CCCCN)NC(=O)[C@@H](Cc2c[nH]c3ccccc23)NC(=O)[C@H](Cc2ccc(O)cc2)NC(=O)[C@H](Cc2ccccc2)NC(=O)[C@@H](N)CSSC[C@@H](C(=O)O)NC(=O)[C@H](Cc2ccccc2)NC1=O" : 2.07

Observed log10 of IC50, Somatostatin receptor type 1 (Homo sapiens), "C[C@@H](O)[C@@H]1NC(=O)[C@H](CCCCN)NC(=O)[C@@H](Cc2c[nH]c3ccccc23)NC(=O)[C@H](Cc2ccccc2)NC(=O)[C@H](Cc2ccccc2)NC(=O)[C@H](N)CSSC[C@H](C(N)=O)NC(=O)[C@H](Cc2ccccc2)NC1=O" : 2.86

Observed log10 of IC50, Somatostatin receptor type 1 (Homo sapiens), "CC(C)NCc1ccc(C[C@@H]2NC(=O)[C@@H](Cc3c[nH]c4ccccc34)NC(=O)[C@@H]3CCC(=O)NCCC(=O)NCC[C@H](NC(=O)[C@H](Cc4ccccc4)NC(=O)[C@H]([C@@H](C)O)NC2=O)C(=O)N[C@@H](CO)C(=O)N[C@H](C(=O)O)CSSC[C@H](NC(=O)[C@@H](N)Cc2ccc(O)cc2)C(=O)N[C@@H](CCCCN)C(=O)N[C@@H](Cc2ccccc2)C(=O)N3)cc1" : 1.87
